molecular target: Ubiquitin carboxyl-terminal hydrolase 30 (Homo sapiens) (UniProt Q70CQ3); assay: inhibitors of ubiquitin-specific protease 30 deubiquitylating enzyme, concentration dependence, in vitro biochemical, validation of primary hits (AID 1645865); conditions: purified USP30, Ub-rhodamine cleavage, fluorescence, 2 h
Sequence (Q70CQ3 whole entry, looked up): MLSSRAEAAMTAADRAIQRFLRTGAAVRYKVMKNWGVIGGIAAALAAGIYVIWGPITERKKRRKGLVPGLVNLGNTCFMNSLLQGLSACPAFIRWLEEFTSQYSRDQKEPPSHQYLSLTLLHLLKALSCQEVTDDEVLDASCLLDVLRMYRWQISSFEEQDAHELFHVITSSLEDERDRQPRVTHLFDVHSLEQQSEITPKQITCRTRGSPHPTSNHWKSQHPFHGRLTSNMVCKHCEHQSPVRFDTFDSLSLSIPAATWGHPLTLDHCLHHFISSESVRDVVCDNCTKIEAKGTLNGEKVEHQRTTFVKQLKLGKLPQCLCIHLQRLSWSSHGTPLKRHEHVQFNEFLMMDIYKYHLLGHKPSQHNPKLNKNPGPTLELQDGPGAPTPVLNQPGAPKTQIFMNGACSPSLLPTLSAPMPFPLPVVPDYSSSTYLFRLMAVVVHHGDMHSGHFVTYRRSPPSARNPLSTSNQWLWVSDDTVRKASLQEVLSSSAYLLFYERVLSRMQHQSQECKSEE
The source made the active and inactive calls.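 Rule for the calls: active = maximal inhibition of the USP30 enzyme reaching 30% or more across the dose series; inactive = the rest.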
Outcomes: label 1 for active, label 0 for inactive

{"columns": ["COMPOUND", "CATEGORY LABEL"],
 "data": [
  ["COC(=O)c1c(C)[nH]c(C(=O)C(C)OC(=O)CCC2CCCC2)c1C (centres undefined)", "label 0"],
  ["Cc1ccc2c(c1)[C@]1(C(=O)N2)[C@@H]2C(=O)N(c3cccc(C(F)(F)F)c3)C(=O)[C@@H]2C2CCCN21 (some centres undefined)", "label 0"],
  ["COc1cc2c(cc1OC)-c1cc(NCc3cc(OC)c(OC)c(OC)c3)nc(=O)n1CC2", "label 0"],
  ["c1csc(-c2nc(Nc3ccc4c(c3)CCC4)c3ccccc3n2)c1", "label 1"],
  ["O=c1[nH]c(C2CCN(S(=O)(=O)c3ccc(S(=O)(=O)NC4CCCCC4)cc3)CC2)nc2c1nnn2Cc1c(Cl)cccc1Cl", "label 1"],
  ["CCOC(=O)[C@@H]1[C@@H](c2ccccc2)CN2CCN(C(=O)c3cnccn3)C[C@H]12", "label 0"],
  ["CC(=O)c1cccc(NC(=O)c2ccc(N3CCCCC3)nn2)c1", "label 1"],
  ["COc1ccccc1-c1nc2c3c(C)c(C)n(-c4ccc(Br)cn4)c3ncn2n1", "label 1"],
  ["COc1cccc(-c2nc3cnccn3c2NCc2ccc3c(c2)OCO3)c1", "label 0"]
]}

---

target: UniProt:Q70CQ3; assay: inhibitors of ubiquitin-specific protease 30 deubiquitylating enzyme, concentration dependence, in vitro biochemical, validation of primary hits (AID 1645865); conditions: purified USP30, Ub-rhodamine cleavage, fluorescence, 2 h
Active and inactive are the calls of the source.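 Rule for the calls: active = maximal inhibition of the USP30 enzyme reaching 30% or more across the dose series; inactive = the rest.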
Outcomes: active, inactive

{"columns": ["COMPOUND", "TARGET DESC", "CATEGORY LABEL"],
 "data": [
  ["Cc1ccc(-c2cn(CC(=O)N3CCN(c4ccccn4)CC3)c(=O)o2)cc1", "UniProt:Q70CQ3", "active"],
  ["COc1ccc(NC(=O)COc2cc(CSc3ccccc3)ncc2OC)cc1", "UniProt:Q70CQ3", "active"],
  ["CC1CCCN(S(=O)(=O)c2cc3cc(F)ccc3oc2=O)C1 (configuration not stated)", "UniProt:Q70CQ3", "active"],
  ["CSc1ccc(CNC(=O)CC2CCN(S(=O)(=O)c3ccc(C)cc3)CC2)cc1", "UniProt:Q70CQ3", "active"],
  ["COc1cc2c(c3oc4cccc(O)c4c(=O)c13)C1C=COC1O2 (configuration not stated)", "UniProt:Q70CQ3", "inactive"],
  ["CSc1ccccc1C(=O)Nc1nc(-c2ccncc2)cs1", "UniProt:Q70CQ3", "active"],
  ["Cc1ccc(C(=O)NCc2ccc(C(=O)Nc3ccc(C)c(C)c3)o2)cc1", "UniProt:Q70CQ3", "active"],
  ["COc1ccc(-c2cc(-c3ccc(O)cc3)nc(N)c2C#N)cc1OC", "UniProt:Q70CQ3", "inactive"],
  ["O=C(CN1C(=O)c2ccccc2Sc2ccc(C(=O)N3CCCC3)cc21)Nc1ccccc1Cl", "UniProt:Q70CQ3", "inactive"],
  ["CCOc1ccc(NS(=O)(=O)c2ccc(NC(=O)Nc3ccccc3)cc2)cc1", "UniProt:Q70CQ3", "active"],
  ["c1csc(CCN2CCc3nc4cccnc4cc3C2)c1", "UniProt:Q70CQ3", "inactive"],
  ["COc1ccc(C(=O)NCc2csc3ccccc23)cc1", "UniProt:Q70CQ3", "active"],
  ["Cc1ccc(-n2c(-c3ccccc3)cn3c4c(=O)[nH]c(=O)n(C)c4nc23)cc1Cl", "UniProt:Q70CQ3", "active"],
  ["O=C(c1ccco1)N1CCCC2(C1)Nc1cccnc1NC2=NC1CCCC1 (configuration not stated)", "UniProt:Q70CQ3", "inactive"],
  ["Cc1cccc(NC(=O)Cn2c(N3CCOCC3)nc3cc(C)n(C)c3c2=O)c1", "UniProt:Q70CQ3", "active"],
  ["O=C(NCc1ccncc1)C1CCN(c2cncnc2N2CCCCC2)CC1", "UniProt:Q70CQ3", "inactive"],
  ["COC(=O)c1cc(C#N)c(NCc2ccccc2)nc1C", "UniProt:Q70CQ3", "active"],
  ["O=C(CNc1nc(Nc2ccccc2F)nc(Nc2ccccc2F)n1)Nc1ccccc1", "UniProt:Q70CQ3", "active"],
  ["CC1=C(c2ccc(F)cc2)S(=O)(=O)NC1=NCC(=O)Nc1cccc(F)c1", "UniProt:Q70CQ3", "active"],
  ["COc1cccc(-c2cc(=O)[nH]c(Nc3nc(C)c4ccccc4n3)n2)c1", "UniProt:Q70CQ3", "active"],
  ["Cc1c(OCC(=O)NCC(=O)N2CCC3(O)CCCCC3C2)ccc2c3c(c(=O)oc12)CCCC3 (configuration not stated)", "UniProt:Q70CQ3", "active"],
  ["CCc1cccc(CC)c1NC(=O)COC(=O)c1cc2cccc(OC)c2oc1=O", "UniProt:Q70CQ3", "active"]
]}

---

biological target: Ubiquitin carboxyl-terminal hydrolase 30 (Homo sapiens); test: inhibitors of ubiquitin-specific protease 30 deubiquitylating enzyme, concentration dependence, in vitro biochemical, validation of primary hits (AID 1645865); conditions: purified USP30, Ub-rhodamine cleavage, fluorescence, 2 h
Calls of active or inactive are those of the source.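 How the source made its calls: active means maximal inhibition of the USP30 enzyme reaching 30% or more across the dose series; inactive means the rest.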
Outcomes: t = active, f = inactive

{"columns": ["MOLECULE", "CATEGORY LABEL"],
 "data": [
  ["Cc1cc(Nc2ccc(C(=O)NCc3ccco3)cc2)n2nc(-c3cccnc3)nc2n1", "f"],
  ["CO/C1=C\\C(C)=C/[C@@H](C)[C@@H](O)[C@@H](C)C/C(C)=C/C=C/[C@H](OC)[C@@H]([C@@H](C)[C@@H](O)[C@H](C)[C@@]2(O)C[C@@H](OC(=O)/C=C/C(N)=O)[C@H](C)[C@@H](C(C)C)O2)OC1=O", "f"],
  ["Nc1c(C(=O)NCc2ccc3c(c2)OCO3)nnn1Cc1ccc(Br)cc1F", "t"],
  ["Cc1ccc(Nc2nc(C(=O)NCc3ccc4c(c3)OCO4)cc3occc23)cc1Cl", "f"],
  ["COc1ccc(S(=O)(=O)N2CCC3(CC2)OC(=O)Nc2ccccc23)cc1", "t"],
  ["Cc1ccc2oc(=O)c(S(=O)(=O)N3CCCCC3)cc2c1", "t"],
  ["O=C(/C=C/C=C/C=C/C1CCCCC1)NC1=C[C@@](O)(/C=C/C=C/C=C/C(=O)NC2=C(O)CCC2=O)[C@@H]2O[C@@H]2C1=O", "f"],
  ["CCN1C[C@@H]2C[C@]2(c2ccccc2OC)C(=O)c2ncccc21", "f"],
  ["COc1cccc2cc(C(=O)Nc3nc(-c4ccncc4)cs3)oc12", "t"],
  ["COc1ccc(/C=C\\c2nccc3c2[nH]c2ccccc23)cc1", "f"],
  ["CCOC(=O)c1c(C)oc2nc(CSc3ccccc3)[nH]c(=O)c12", "f"],
  ["c1ccc(CN2CCN(c3nc4ccccc4n4nnnc34)CC2)cc1", "f"],
  ["COc1ccc2c(C)c(CC(=O)N3CCC[C@H]3C(=O)O)c(=O)oc2c1C", "t"],
  ["Cc1ccc2c(c1)N(C)C(=O)c1cc(NC(=O)c3ccc(F)cc3)ccc1O2", "t"],
  ["CN1CCN(C(=O)c2cc(-c3ccn(CC4CC4)n3)n3ccccc23)CC1", "f"],
  ["O=C(COc1cc([N+](=O)[O-])cc2cccnc12)NCCC1=CCCCC1", "t"],
  ["N#Cc1c(N)nc2c(c1N)C(c1ccccc1)CO2 (stereo not given)", "t"],
  ["CC(C)c1cc(NCc2ccccc2)n2nc(-c3cccnc3)nc2n1", "t"],
  ["Cn1c2ccccc2c2ncn(Cc3ccc(F)cc3)c(=O)c21", "t"],
  ["N#Cc1c(Cl)cccc1Oc1ccc(S(=O)(=O)N2CCC(O)CC2)cc1", "t"]
]}

---

molecular target: Ubiquitin carboxyl-terminal hydrolase 30 (Homo sapiens) (UniProt Q70CQ3); experiment: inhibitors of ubiquitin-specific protease 30 deubiquitylating enzyme, concentration dependence, in vitro biochemical, validation of primary hits (AID 1645865); conditions: purified USP30, Ub-rhodamine cleavage, fluorescence, 2 h
The source made the active and inactive calls.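 Rule for the calls: active = maximal inhibition of the USP30 enzyme reaching 30% or more across the dose series; inactive = the rest.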
Outcomes: True (active), False (inactive)

{"columns": ["COMPOUND", "CATEGORY LABEL"],
 "data": [
  ["CC(=O)c1oc2nc3c(c(-c4ccc(Cl)cc4)c2c1N)CCc1ccccc1-3", "False"],
  ["Cc1ccc(NCc2cc3c(C(C)(C)C)nn(-c4ccc(Cl)cc4)c3[nH]c2=O)cc1", "False"],
  ["O=C(Nc1cccc(Br)c1)c1cc(-c2cccnc2)n[nH]1", "True"],
  ["COC(=O)c1ccc(Cn2cnc3ccc(Br)cc3c2=O)o1", "False"],
  ["Cc1ccc(C(=O)Nc2nc3n(n2)C(c2ccccc2)CC(=O)N3)cc1 (stereo not given)", "True"],
  ["COc1ccc2[nH]cc(S(=O)(=O)c3ccc(C)c(F)c3)c(=O)c2c1", "True"],
  ["Cc1nc2c3ccccc3nc(NCc3ccc4c(c3)OCO4)n2n1", "True"],
  ["C/C=C(\\Cl)C1=CC(=O)[C@]23C[C@H]2[C@@]2(C)CO[C@@]1(O)[C@@]3(O)O2", "False"],
  ["COc1ccccc1NC(=O)CNC(=O)c1nn(-c2ccc(OC)c(OC)c2)c(=O)c2ccccc12", "True"],
  ["C/C1=C/C=C/[C@H](C)[C@H](O)[C@@H](C)[C@@H](O)[C@@H](C)[C@H](O)[C@H](C)[C@@H](O)[C@@H](C)/C=C(/C)C(=O)c2c(O)c(C)cc3c2C(=O)C=C(NC1=O)C3=O", "False"],
  ["COc1ccc(NC(=O)CSc2oc(-c3ccc(C)cc3)nc2S(=O)(=O)c2ccc(Br)cc2)c(OC)c1", "False"],
  ["Cc1ccc(/C=C/C(=O)Nc2ccc3c(c2)OCCO3)cc1", "False"],
  ["COc1cccc(NC(=O)Nc2ccc(NC(C)=O)cc2)c1", "True"],
  ["Cc1cc(C)cc(-n2cnc3cc(C(=O)NCCC4=CCCCC4)ccc32)c1", "False"],
  ["O=C(CC1C(=O)N(Cc2cccnc2)c2nc3ccccc3n21)Nc1cccc2ccccc12 (stereo not given)", "False"],
  ["Cn1c2ccccc2c(=O)c2c(=O)n(Cc3ccccc3)c(-c3ccco3)nc21", "True"],
  ["COc1ccc(CCn2cnc3c([nH]c4ccccc43)c2=O)cc1", "True"],
  ["Cc1ccc2cc(CNc3ccccc3)c(=O)n(CC(=O)Nc3ccccc3C)c2c1", "True"],
  ["COc1ccc(C(=O)C2CC(=O)Nc3c2c(C)nn3-c2ccc(Br)cc2)cc1 (stereo not given)", "True"],
  ["c1ccc(-c2ccc(NCc3ccc4c(c3)OCO4)nn2)cc1", "True"]
]}

Source listed as PubChem BioAssay AID1645865.
